The measured values listed here are drawn from PubChem BioAssay (NCI).

Tested on: HOP-92 NSCLC
Assay: NCI tumour cell line growth inhibition, 48 h; in the data active = GI50 below about 0.43 µM; inactive = the rest
Would you mind answering with one of these outcomes? True = active, False = inactive

Examples with answers:
CC(C)C[C@H](NC(=O)[C@@H](O)[C@H](N)Cc1ccc([N+](=O)[O-])cc1)C(=O)O :: False
Nc1nc(N)c(N=O)c(OCC2CCCCC2)n1 :: False

Outcome? CCCc1cc(=O)n2c(C(=O)Nc3ccccc3OC)c(C(=O)Nc3ccc(F)cc3)sc2n1 False

Outcome? CCN1C(=O)N(CC)C2C1NN=c1s/c(=C\c3cc4ccccc4[nH]3)c(=O)n12 (centres undefined) True

====

Tested on: OVCAR-8 ovarian
Test: NCI tumour cell line growth inhibition, 48 h
Measured endpoint: TGI (µM)
// return numeric value only (unit: µM, not printed)

The cases that follow already have their TGI on record.
O=C(CCCSc1nc(-c2ccccc2)cc(-c2ccc(Cl)cc2)n1)NO :: 16.2
CCOc1ncn(-c2ccc(NC(=S)NC34CC5CC(CC(C5)C3)C4)cc2)n1 :: 64.3
COC(=O)C1=C(C)NC(C)=C(C(=O)OC)C1c1cccc(NO)c1 :: 30.2

So what's the measured TGI for this one? O=C(CN(/C=C/C(=O)C(F)(F)F)c1ccccc1)c1ccc(Cl)c(Cl)c1 33

====

Test system: U251 CNS
Assay: NCI tumour cell line growth inhibition, 48 h
Measured endpoint: TGI (µM)
// return numeric value only (unit: µM, not printed)

The cases that follow already have their TGI on record.
O=C1OCC/C1=C/c1ccc(N=Nc2c(O)ccc3ccccc23)cc1 :: 39.2
Nc1cc(N)c2nc(-c3ccccc3)c(NCc3ccc(F)cc3)nc2c1 :: 3.16
COC(=O)C(F)C(Br)C(=O)OC (stereo unspecified) :: 9.84
S=C(Nc1cc(Cl)c(Cl)cc1Cl)SCc1ccccc1 :: 52.7

So what's the measured TGI for this one? CCN(CC)c1ccc(C(=N)c2ccc(N(C)C)cc2)cc1 7.57

So what's the measured TGI for this one? N=C(N)c1ccc(COc2ccccc2OCc2ccc(C(=N)N)cc2)cc1 65.4

====

Tested on: T-47D breast
Assay: NCI tumour cell line growth inhibition, 48 h
Measured endpoint: log10(TGI) (log10 of the value in µM)
Scale: decimal log of TGI, TGI in µM.

C=C1CCC2C3(C)COC(c4ccccc4Br)OC3CCC2(C)C1C/C=C1/C(=O)OCC1OC(C)=O (stereo not given) :: 0.44

Form field - read-out: log10(TGI); system: T-47D breast; submitted item: CN(C)c1ccc(C(=C2C=CC(=[N+](C)C)C=C2)c2ccc(N(C)C)cc2)cc1 0.05

Form field - read-out: log10(TGI); system: T-47D breast; submitted item: Cc1cc2nc(-c3c(F)cccc3F)n(Cc3c(F)cccc3F)c2cc1C 1.67

Form field - read-out: log10(TGI); system: T-47D breast; submitted item: C=C1C(=O)O[C@H]2[C@H]3O[C@@H](C[C@@H]12)[C@@]1(C)CC[C@H](O1)C(C)=CCC[C@H]3C 0.80

Form field - read-out: log10(TGI); system: T-47D breast; submitted item: CCN(CC)c1ccc(C(=N)c2ccc(N(C)C)cc2)cc1 0.97

Form field - read-out: log10(TGI); system: T-47D breast; submitted item: CCCCOCCOC1=CC(=O)c2c(O)ccc(O)c2C1=O 0.61
